- System: Noggin (protein binding on small-molecule microarray)
- measurement_description: small molecules binding Noggin protein – biochemical, 635/667 nm fluorescence, primary screen (AID 1095);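 further: score merges 667 nm feature fluorescence with signal to noise over triplicate slides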
- experimental_conditions: 635 nm fluorescence, higher = more signal

{"compound": "COCCCNC(=O)[C@@]1(Cc2ccccc2)N=C(c2ccc(OCCCO)cc2)O[C@H]1c1ccccc1CN=[N+]=[N-]", "composite z-score": 0.445}
{"compound": "COC(=O)[C@@]1(Cc2ccccc2)[C@H]2c3cc(C(=O)N(C)C)n(Cc4ccc(OC)c(OC)c4)c3C[C@H]2CN1C(=O)c1ccccc1", "composite z-score": 0.0998}
{"compound": "C[N+](C)(C)CCCC[C@@H]1NC(=O)[C@H]2C[C@@H](C(=O)NCCCCCCNC(=O)CS)[C@@H](c3ccc(O)cc3)N2C1=O", "composite z-score": 0.395}
{"compound": "CCOC(=O)C[C@H]1[C@H](OC(=O)c2cc3ccccc3oc2=O)[C@@H](NC(=O)CC(C)C)c2cc(OCCCO)ccc2N1C(=O)c1ccccc1", "composite z-score": 0.805}
{"compound": "OB1C=CCC(CCc2ccccc2)O1 (stereo unspecified)", "composite z-score": -0.0988}
{"compound": "CCCNC(=O)[C@@]1(Sc2ccc(C)cc2)CC(=O)N(Cc2ccccc2C(F)(F)F)[C@@H]1c1ccc(CO)cc1I", "composite z-score": 0.932}
{"compound": "C#CCNCc1ccccc1", "composite z-score": 0.235}
{"compound": "CCCC[C@@H]1C[C@H]1[C@@H](NC(=O)c1cccnc1)c1ccc(Cl)cc1", "composite z-score": -2.93}
{"compound": "CN(C)CCCCCCNC(=O)[C@@H]1C[C@@H]2C(=O)N[C@@H](CCCC[N+](C)(C)C)C(=O)N2[C@@H]1c1ccc(O)cc1", "composite z-score": 0.576}
{"compound": "CC1CC/C=C\\[C@H]2OC34C=CCN(c5ccc6ccccc6c5)C(=O)[C@H]3N(CCO)C(=O)[C@@H]4C2C(=O)O1 (stereo partly specified)", "composite z-score": -1.11}
{"compound": "CO[C@H]1O[C@H](CO)[C@@H](OC(=O)Nc2ccccc2-c2ccccc2)[C@H](OC(=O)Nc2ccccc2-c2ccccc2)[C@@H]1OC(=O)Nc1ccccc1-c1ccccc1", "composite z-score": 0.761}
{"compound": "COc1ccc([Si](C)(C)[C@@H]2[C@@H](CC(=O)N3Cc4ccccc4C[C@H]3CO)O[C@]3(C(=O)N(Cc4cccc(N5CCC5=O)c4)c4ccccc43)[C@H]2C)cc1", "composite z-score": 0.954}
{"compound": "Cc1c(NC(=O)/C(C#N)=C/c2cccc([N+](=O)[O-])c2)c(=O)n(-c2ccccc2)n1C", "composite z-score": 0.21}
{"compound": "CCOC(=O)[C@H]1C/C=C/C[C@H](C(=O)OCC)C(=O)O[C@H]2[C@@H](OC)O[C@H](CO)[C@@H](OC(=O)c3ccc(Br)cc3)[C@@H]2OC1=O", "composite z-score": 0.197}
{"compound": "O=C(O)[C@H]1C[C@H]2C(=O)N3CCC[C@H]3C(=O)N2[C@H]1c1ccc(O)cc1", "composite z-score": -0.571}
{"compound": "CC(C)[Si](C#C[Si](C(C)C)(C(C)C)C(C)C)(O[C@H](C)c1cn(Cc2ccccc2)nn1)C(C)C", "composite z-score": 0.369}

From: PubChem BioAssay
